assay.target: T1, PUF4 RNA-binding domain (Saccharomyces cerevisiae, UniProt P25339 537-888)
T1 sequence: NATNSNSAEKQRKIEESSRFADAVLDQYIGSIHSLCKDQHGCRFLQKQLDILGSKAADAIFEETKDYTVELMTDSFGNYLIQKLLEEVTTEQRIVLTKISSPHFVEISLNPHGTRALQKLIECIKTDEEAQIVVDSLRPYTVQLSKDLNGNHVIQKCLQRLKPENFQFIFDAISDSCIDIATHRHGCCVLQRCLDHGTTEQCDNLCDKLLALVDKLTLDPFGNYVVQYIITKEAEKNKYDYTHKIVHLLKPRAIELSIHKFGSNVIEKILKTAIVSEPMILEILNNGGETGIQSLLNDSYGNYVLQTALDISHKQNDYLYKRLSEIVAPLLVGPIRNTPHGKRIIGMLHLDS
procedure.details: Mg; RNA-MaP; 20 mM Na-HEPES pH 7.4, 30 mM KOAc, 0.75 mM MgCl2, 0.1% Tween-20, 5% glycerol, 0.1 mg/mL BSA, 2 mM DTT; 25 C; 0.0125-409.6 nM protein
test.settings: tags: N-His6-TEV cleaved; C-SNAP kept, Cy3B-labelled; label: tethered on chip by stalled RNA polymerase
readout.type: Kd (nM)
Express it in nM; write the number only.

binder: UCUCUUUGUAUAUUAUCUCUCUCUU (ssRNA) [Ie_S1_P4E.1_K4.1_C4.1_H4.1_A4.1_F4.1_[+9TCTC]_T4.1]
unit.of.measure: nM
reported: 0.601
//
binder: Id_ii_S2_P5E.2_K5.1_C5.2_[C-2T]_[T-1C]_H5.1_A5.1_F5.1_T5.2_[A12T] (ssRNA) RNA: UUUGAUUAAUAUGAUAUCGUUCUUUCUUCUGUAUUAUUAUUUUCUUUCUCGAUAUCAUAUUAAUCUUU
unit.of.measure: nM
reported: 1.5
//
binder: Ic_S4_P5E.1_K5.1_C5.1_H5.1_A5.1_[T5A]_[T6C]_[A7C]_F5.1_[A10T]_T5.1 (ssRNA) RNA: UUUGACAACUGAUCGUUCUUUCUUGUAACCUUUUUCUUUCUCGAUCAGUUGUCUUU
unit.of.measure: nM
reported: 18

Turning now to a further record.
Exam item: Identify measured Kd corresponding to UCUCUUGAUAUAUAUAGCUCUCUU (ssRNA) [Id_ii_S1_P3E.3_K3.2_C3.2_[C-2G]_[T-1A]_H3.2_A3.1_F3.1_T3.2_[T9G]_[A10C]]
Marked response: 500
